test system: 653999-131-R-J2-PDC complex spheroids, growth % test/control; test: Anticancer human tumor 653999-131-R-J2-PDC patient-derived lung adenocarcinoma cell line growth inhibition [AhR]; conditions: second compound 3.16 µM; first compound 0.316 µM; active compounds read low;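 also: spheroids exposed to agents for seven days; 100% = DMSO vehicle control viability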
measured_property: viability, T/C (%)
Numeric only. Scale: %

Past entries and their recorded results:
O=C(c1cc(Cc2n[nH]c(=O)c3ccccc23)ccc1F)N1CCN(C(=O)C2CC2)CC1 + Cc1ccccc1N=Nc1ccc(NC(=O)c2ccnn2C)c(C)c1    91.5
CC1COCCN1c1cc(-c2ccnn2C)c2ccnc(-c3ccn[nH]3)c2n1 (stereo not drawn) + Cc1ccccc1N=Nc1ccc(NC(=O)c2ccnn2C)c(C)c1    39.8

Field: next compound
The compound listed as CC1COCCN1c1cc(-c2ccnn2C)c2ccnc(-c3ccn[nH]3)c2n1 (stereo not drawn) + CC(CO)NC(=O)c1cc(-c2ccc(Cl)cc2)nn(-c2cnn(C)c2)c1=O has a reported viability, T/C of 35.6
